A collection of compounds and their measured growth
- System: SNB-19 CNS
- assay_comment: NCI-60 one-dose screen, 48 h (100 = growth as untreated, 0 = no growth, -100 = all killed)
- test_context: 10 µM
Compounds without any hit were thinned out: in the full panel of roughly 83,000, 20% have a hit.
assay_metric: growth (%)

- cpd_smiles: "CCSc1nc2c([nH]1)c(=O)n(C)c(=S)n2C"
  experimental_value: 109
- cpd_smiles: "CCCn1c(=O)c2c(nc(-c3cccc(OCCCCl)c3)n2C)n(CCC)c1=O"
  experimental_value: 32.9
- cpd_smiles: "O=C(O)c1ccc(CNc2ccc(C(=O)CCl)cc2)cc1"
  experimental_value: 103
- cpd_smiles: "COc1ccc(Cn2cc3c(c2-c2cc(OC)c(OC)c(OC)c2)CCc2cnoc2-3)cc1N"
  experimental_value: 44.6
- cpd_smiles: "O=C(/C=C/c1nnc2n(Cc3ccccc3)c(=O)c3c4c(sc3n12)CCCC4)c1ccccc1"
  experimental_value: 99.4
- cpd_smiles: "Nc1nsc(C(=O)c2ccc(O)cc2)n1"
  experimental_value: 103
- cpd_smiles: "CCOc1nc(-c2ccccc2)cc2c(O)c(C(=O)N/N=C/c3ccc(OC)cc3)[nH]c(=O)c12"
  experimental_value: 96.9
- cpd_smiles: "Cc1cccc2c1O/C(=C\\c1ncc([N+](=O)[O-])n1C)C2=O"
  experimental_value: -5.53
- cpd_smiles: "C/C(=N\\NC(N)=S)C(C)(C)O"
  experimental_value: 106
- cpd_smiles: "CCOC(=O)Nc1ccc2c(c1)C(=O)N(CC)c1ccccc1O2"
  experimental_value: 31.7
- cpd_smiles: "O=C(Nc1cccc(C(F)(F)F)c1)C(Cl)Cl"
  experimental_value: 99

The measured values listed here are drawn from PubChem BioAssay (NCI).
